Molecular target: T1, human PD-L1 ECD-His (human, UniProt Q9NZQ7 19-238)
T1 construct: extracellular domain; Analyte in all SPR and BLI runs; also called hPD-L1_ECD-His; hPD-L1 ECD-His; not shown: His tag
T1 sequence (Q9NZQ7 19-238): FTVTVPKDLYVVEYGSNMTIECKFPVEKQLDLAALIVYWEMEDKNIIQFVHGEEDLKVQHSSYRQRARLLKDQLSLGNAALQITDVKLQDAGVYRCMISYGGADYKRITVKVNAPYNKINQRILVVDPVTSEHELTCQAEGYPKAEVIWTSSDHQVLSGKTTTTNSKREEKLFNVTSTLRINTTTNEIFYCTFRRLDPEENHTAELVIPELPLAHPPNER
Assay: BLI Octet RED96, antibody on AHC anti-human-Fc sensor, hPD-L1-His analyte, 1:1 fit
property-name: kon (M⁻¹ s⁻¹)
Numbers only; they are read as M⁻¹ s⁻¹.

Documented kon of PL3#7-19 deglyco2 mtIgG1 (antibody, V domains shown, N297A mutant human IgG1) VH: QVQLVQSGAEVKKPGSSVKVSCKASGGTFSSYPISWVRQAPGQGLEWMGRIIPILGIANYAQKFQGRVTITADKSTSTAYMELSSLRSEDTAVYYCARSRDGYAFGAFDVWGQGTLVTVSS VL: QSVVTQPPPVSGAPGQRVTISCTGSSSNIGGGYDVHWYQQLPGTAPKLLIYGQSTRPSGVPDRFSGSKSGTSASLAITGLQAEDEADYYCQTYDSSLSATVVFGGGTKLTVLG : 415000

Documented kon of PL3#7-43 deglyco2 mtIgG1 (antibody, V domains shown, N297A mutant human IgG1; also called PL3#7-43 deg1yco2) VH: QVQLVQSGAEVKKPGSSVKVSCKASGGTFSSYPISWVRQAPGQGLEWMGRIIPILGIANYAQKFQGRVTITADKSTSTAYMELSSLRSEDTAVYYCARSRPGYAFGAFDIWGQGTLVTVSS VL: QSVVTQPPPVSGAPGQRVTISCTGSSSNVGAGYDVHWYQQLPGTAPKLLIYGNSQRSSGVPDRFSGSKSGTSASLAITGLQAEDEADYYCQTYDSSGSARVVFGGGTKLTVLG : 600000

Documented kon of PL3#7-19 deglyco3 mtIgG1 (antibody, V domains shown, N297A mutant human IgG1) VH: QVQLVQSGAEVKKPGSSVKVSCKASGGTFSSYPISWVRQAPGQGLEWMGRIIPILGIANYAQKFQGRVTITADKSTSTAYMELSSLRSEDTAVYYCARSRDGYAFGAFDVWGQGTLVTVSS VL: QSVVTQPPPVSGAPGQRVTISCTGSSSNIGGGYDVHWYQQLPGTAPKLLIYGNSQRPSGVPDRFSGSKSGTSASLAITGLQAEDEADYYCQTYDSSLSATVVFGGGTKLTVLG : 506000
